Origin of values: patent US20090208538A1

system: HLA-B*0702 (human)
experiment notes: iTopia net score
Examples of binders with documented iScore follow.
readout kind: iScore

1. KPAPSFACL [cdr2 153-161 KPAPSFACL] :: 0.205
2. LAAELGKTL [cdr2 30-38 LAAELGKTL] :: 0.052
3. KQVELLRQM [cdr2 68-76 KQVELLRQM] :: 0.055
4. VPDSLYVPF [cdr2 275-283 VPDSLYVPF] :: 0.068
5. HLKKTVTML [cdr2 197-205 HLKKTVTML] :: 0.022
6. RTKYRSLSS [cdr2 444-452 RTKYRSLSS] :: 0.031
